# Tested on: Vero E6 infected with SARS-CoV-2
# TEST DESCRIPTION: inhibition of SARS-CoV-2 cytopathic effect; higher = more antiviral protection, active = above 15
# APPLIED CONDITIONS: 10000 nM; 48 h
MEASURED ENDPOINT: inhibition of SARS-CoV-2 cytopathic effect (%)
Answer format: numeric, % implied, no suffix.

                                   compound  unit_annotation  experimental_value
0  C=C1c2cccc(O)c2C(=O)C2=C(O)[C@]3(O)C(=O)C(C(N)=O)=C(O)[C@@H](N(C)C)[C@@H]3[C@@H](O)[C@H]12                %                2.34

Q: # inhibition of SARS-CoV-2 cytopathic effect lookup, item Nc1nc(NC2CC2)c2ncn([C@H]3C=C[C@@H](CO)C3)c2n1
Ans: 0.33

Q: # inhibition of SARS-CoV-2 cytopathic effect lookup, item CC(C)(N)Cc1ccccc1
Ans: 1.23

Q: # inhibition of SARS-CoV-2 cytopathic effect lookup, item CNS(=O)(=O)CCc1ccc2[nH]cc(C3CCN(C)CC3)c2c1
Ans: -1.76

Q: # inhibition of SARS-CoV-2 cytopathic effect lookup, item C[C@@H](C1=C(CCN(C)C)Cc2ccccc21)c1ccccn1 (racemic)
Ans: 1.16

Q: # inhibition of SARS-CoV-2 cytopathic effect lookup, item N[C@@H](Cc1ccc(Cl)cc1)C(=O)O (racemic) [fenclonine-(+/-)]
Ans: 3

Q: # inhibition of SARS-CoV-2 cytopathic effect lookup, item CCCCCCCCCCCCCCCC(=O)OC(CC(=O)[O-])C[N+](C)(C)C (centres undefined)
Ans: -9.18

Q: # inhibition of SARS-CoV-2 cytopathic effect lookup, item CC(C)(C)NC[C@H](O)COc1cccc2c1CCCC2=O
Ans: 2.67

Q: # inhibition of SARS-CoV-2 cytopathic effect lookup, item COc1ccc(-c2nc(N3CCOCC3)c3sc(CN(C)c4ncc(C(=O)NO)cn4)cc3n2)cn1
Ans: -21.4

Q: # inhibition of SARS-CoV-2 cytopathic effect lookup, item N#Cc1cccc(-c2nc(-c3cccnc3)no2)c1
Ans: 2.85

Q: # inhibition of SARS-CoV-2 cytopathic effect lookup, item Cc1sc2c(c1C)C(c1ccc(Cl)cc1)=N[C@@H](CC(N)=O)c1nnc(C)n1-2
Ans: -9.8

Q: # inhibition of SARS-CoV-2 cytopathic effect lookup, item CNC(=O)Nc1ccc(-c2nc(N3CC4CCC(C3)O4)c3cnn(C4CCC5(CC4)OCCO5)c3n2)cc1
Ans: 9.1

Q: # inhibition of SARS-CoV-2 cytopathic effect lookup, item Cc1nc(C)c(C)nc1C
Ans: 1.87

Q: # inhibition of SARS-CoV-2 cytopathic effect lookup, item Cn1cnc2c(NCc3ccccc3)nc(NCCO)nc21
Ans: -0.63

Q: # inhibition of SARS-CoV-2 cytopathic effect lookup, item CCCc1c(OCCCCc2nnn[nH]2)ccc(C(C)=O)c1O
Ans: -6.02

Q: # inhibition of SARS-CoV-2 cytopathic effect lookup, item O=NN(CCCl)C(=O)NC1CCCCC1
Ans: -0.14

* * *

# Test system: Vero E6 infected with SARS-CoV-2
# TEST DESCRIPTION: inhibition of SARS-CoV-2 cytopathic effect; higher = more antiviral protection, active = above 15
# APPLIED CONDITIONS: 833.33 nM; 48 h
Consider the following compounds and their measured inhibition of SARS-CoV-2 cytopathic effect readings.
Answer format: numeric, % implied, no suffix.

Here's what some known entries look like.
                                   compound                       test_target  experimental_value
0  Clc1ccc(COC(Cn2ccnc2)c2ccc(Cl)cc2Cl)cc1 (stereo not given)  Vero E6 infected with SARS-CoV-2                3.08
1  OC1(c2ccc(Cl)c(C(F)(F)F)c2)CCN(CCCC(c2ccc(F)cc2)c2ccc(F)cc2)CC1  Vero E6 infected with SARS-CoV-2               -2.41
2  CS(=O)(=O)N1CCN(Cc2cc3nc(-c4cccc5[nH]ncc45)nc(N4CCOCC4)c3s2)CC1  Vero E6 infected with SARS-CoV-2               -5.78
3  C[C@H](Nc1cc(NS(=O)(=O)N2CCC2)nc(SCc2cccc(F)c2F)n1)[C@@H](O)CO  Vero E6 infected with SARS-CoV-2                0.91

# ---- query compound ----
Q: # inhibition of SARS-CoV-2 cytopathic effect lookup, item CC(C)(C)CC(=O)Nc1c(F)cc(C(=O)/N=c2\sccn2COP(=O)(O)O)cc1F
Ans: -0.94
